Listed below: inhibition at 0.01 µM values for each entry.
ASSAYED_TARGET: P300 (Homo sapiens, UniProt Q09472)
Sequence (Q09472 whole entry): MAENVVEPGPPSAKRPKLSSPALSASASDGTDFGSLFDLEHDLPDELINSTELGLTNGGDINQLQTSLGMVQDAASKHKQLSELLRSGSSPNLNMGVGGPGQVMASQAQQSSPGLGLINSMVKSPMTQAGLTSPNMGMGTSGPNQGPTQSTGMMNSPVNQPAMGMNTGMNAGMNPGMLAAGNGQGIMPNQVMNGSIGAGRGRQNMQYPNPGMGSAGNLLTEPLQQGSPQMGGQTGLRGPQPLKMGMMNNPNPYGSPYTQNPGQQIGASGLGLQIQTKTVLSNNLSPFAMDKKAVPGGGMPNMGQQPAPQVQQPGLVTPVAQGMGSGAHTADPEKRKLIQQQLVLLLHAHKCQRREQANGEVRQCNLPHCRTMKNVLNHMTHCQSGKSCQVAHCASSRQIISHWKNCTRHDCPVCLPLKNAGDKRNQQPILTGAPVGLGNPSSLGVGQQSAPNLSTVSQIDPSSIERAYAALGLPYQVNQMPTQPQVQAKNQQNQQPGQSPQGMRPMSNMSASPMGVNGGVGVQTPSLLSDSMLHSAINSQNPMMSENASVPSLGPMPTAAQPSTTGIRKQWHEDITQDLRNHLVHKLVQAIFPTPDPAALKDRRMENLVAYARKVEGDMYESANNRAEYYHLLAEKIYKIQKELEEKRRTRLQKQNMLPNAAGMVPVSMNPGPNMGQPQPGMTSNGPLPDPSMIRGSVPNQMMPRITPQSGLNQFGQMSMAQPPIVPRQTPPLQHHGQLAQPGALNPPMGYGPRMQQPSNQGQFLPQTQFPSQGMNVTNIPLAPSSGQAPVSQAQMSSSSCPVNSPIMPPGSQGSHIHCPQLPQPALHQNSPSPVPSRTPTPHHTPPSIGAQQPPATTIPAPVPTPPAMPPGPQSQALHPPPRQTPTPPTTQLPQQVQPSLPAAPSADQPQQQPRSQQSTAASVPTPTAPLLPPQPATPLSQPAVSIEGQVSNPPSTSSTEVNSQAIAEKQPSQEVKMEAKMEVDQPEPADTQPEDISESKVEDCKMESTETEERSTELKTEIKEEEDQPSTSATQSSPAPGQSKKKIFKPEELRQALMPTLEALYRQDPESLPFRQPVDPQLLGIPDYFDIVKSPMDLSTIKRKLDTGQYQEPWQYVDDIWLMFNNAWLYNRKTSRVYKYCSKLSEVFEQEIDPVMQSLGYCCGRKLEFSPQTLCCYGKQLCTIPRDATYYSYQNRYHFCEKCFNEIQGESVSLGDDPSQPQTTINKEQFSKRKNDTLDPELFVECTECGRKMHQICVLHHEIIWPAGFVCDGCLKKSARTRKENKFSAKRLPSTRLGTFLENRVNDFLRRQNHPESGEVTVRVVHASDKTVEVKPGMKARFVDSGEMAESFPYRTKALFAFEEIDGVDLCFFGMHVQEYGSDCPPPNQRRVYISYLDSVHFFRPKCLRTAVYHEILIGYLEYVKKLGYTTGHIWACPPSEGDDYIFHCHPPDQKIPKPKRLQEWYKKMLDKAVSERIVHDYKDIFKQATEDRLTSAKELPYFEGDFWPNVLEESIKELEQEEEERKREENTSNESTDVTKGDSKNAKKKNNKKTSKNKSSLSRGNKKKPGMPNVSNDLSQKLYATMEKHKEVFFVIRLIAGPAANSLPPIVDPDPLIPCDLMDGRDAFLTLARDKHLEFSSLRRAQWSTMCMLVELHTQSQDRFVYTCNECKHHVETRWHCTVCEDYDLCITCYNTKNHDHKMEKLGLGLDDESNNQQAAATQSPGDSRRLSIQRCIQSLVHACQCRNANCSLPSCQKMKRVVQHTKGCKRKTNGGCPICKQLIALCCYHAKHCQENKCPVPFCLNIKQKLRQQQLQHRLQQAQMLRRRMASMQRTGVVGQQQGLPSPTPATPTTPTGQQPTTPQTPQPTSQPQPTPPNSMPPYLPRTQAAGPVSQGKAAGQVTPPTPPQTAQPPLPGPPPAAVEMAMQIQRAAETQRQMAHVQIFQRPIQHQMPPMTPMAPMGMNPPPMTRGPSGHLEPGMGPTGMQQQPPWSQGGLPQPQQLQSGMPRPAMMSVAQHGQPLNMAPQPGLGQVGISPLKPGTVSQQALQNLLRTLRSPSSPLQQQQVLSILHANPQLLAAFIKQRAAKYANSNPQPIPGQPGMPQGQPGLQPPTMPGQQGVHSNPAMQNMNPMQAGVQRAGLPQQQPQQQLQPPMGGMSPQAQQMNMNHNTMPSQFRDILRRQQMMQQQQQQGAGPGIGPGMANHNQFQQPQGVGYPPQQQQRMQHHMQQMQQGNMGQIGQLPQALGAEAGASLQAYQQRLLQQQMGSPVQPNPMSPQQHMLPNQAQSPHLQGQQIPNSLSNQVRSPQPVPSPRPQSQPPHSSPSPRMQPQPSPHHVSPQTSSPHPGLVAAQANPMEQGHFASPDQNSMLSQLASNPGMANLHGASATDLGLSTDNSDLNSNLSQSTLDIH
MEASUREMENT_PROTOCOL: Immunoblotting of P300 protein levels in LNCaP or 22RV1 cells
Type: cell-based
Set-up: LNCaP or 22RV1 cells that express CBP/P300 proteins were treated with GNE-781 or the bivalent compounds; endogenous in cells; host or cells: LNCaP (clone FGC) or 22RV1 cells
CONDITION_PARAMETERS: percentage of inhibition of p300 at 10 nM (Table 3); read-out: Degradation (10 nM)

MOLECULE	ASSAYED_TARGET	inhibition at 0.01 µM
CC(=O)N1CCc2c(c(N3CCCc4cc(-c5cnn(C)c5)c(C(F)F)cc43)nn2C2CCN(C(=O)CN3CCC(CCc4cccc5c4C(=O)N(C4CCC(=O)NC4=O)C5=O)CC3)CC2)C1 (stereo not shown)	P300 (Homo sapiens, UniProt Q09472)	> 80%
CNC(=O)N1CCc2c(c(N3CCCc4cc(-c5cnn(C)c5)c(C(F)F)cc43)nn2C2CCN(CCCCCCOc3cccc4c3C(=O)N(C3CCC(=O)NC3=O)C4=O)CC2)C1 (stereo not shown)	P300 (Homo sapiens, UniProt Q09472)	> 80%
CNC(=O)N1CCc2c(c(N3CCCc4cc(-c5cnn(C)c5)c(C(F)F)cc43)nn2C2CCN(C(=O)CCOCCOCCOCCOCCNc3cccc4c3C(=O)N(C3CCC(=O)NC3=O)C4=O)CC2)C1 (stereo not shown)	P300 (Homo sapiens, UniProt Q09472)	< 20%
CNC(=O)N1CCc2c(c(N3CCCc4cc(-c5cnn(C)c5)c(C(F)F)cc43)nn2C2CCN(C(=O)CCCCCNc3ccc4c(c3)n(C)c(=O)n4C3CCC(=O)NC3=O)CC2)C1 (stereo not shown)	P300 (Homo sapiens, UniProt Q09472)	> 80%
CNC(=O)N1CCc2c(c(N3CCCc4cc(-c5cnn(C)c5)c(C(F)F)cc43)nn2C2CCN(C(=O)CCCCCNc3cccc4c3CN(C3CCC(=O)NC3=O)C4=O)CC2)C1 (stereo not shown)	P300 (Homo sapiens, UniProt Q09472)	20 to 50%

Value lookup for inhibition at 0.01 µM; key = CNC(=O)N1CCc2c(c(N3CCCc4cc(-c5cnn(C)c5)c(C(F)F)cc43)nn2C2CCN(C(=O)CCCCCC(=O)N[C@H](C(=O)N3C[C@H](O)C[C@H]3C(=O)NCc3ccc(-c4scnc4C)cc3)C(C)(C)C)CC2)C1 < 20%

Next: CNC(=O)N1CCc2c(c(N3CCCc4cc(-c5cnn(C)c5)c(C(F)F)cc43)nn2C2CCN(C(=O)CCCCNc3cccc4c3n(C)c(=O)n4C3CCC(=O)NC3=O)CC2)C1 (stereo not shown) 20 to 50%
